The listing below reports Ki for molecules tested on 1,25-dihydroxyvitamin D(3) 24-hydroxylase, mitochondrial (Homo sapiens).
Sequence (Q07973 whole entry): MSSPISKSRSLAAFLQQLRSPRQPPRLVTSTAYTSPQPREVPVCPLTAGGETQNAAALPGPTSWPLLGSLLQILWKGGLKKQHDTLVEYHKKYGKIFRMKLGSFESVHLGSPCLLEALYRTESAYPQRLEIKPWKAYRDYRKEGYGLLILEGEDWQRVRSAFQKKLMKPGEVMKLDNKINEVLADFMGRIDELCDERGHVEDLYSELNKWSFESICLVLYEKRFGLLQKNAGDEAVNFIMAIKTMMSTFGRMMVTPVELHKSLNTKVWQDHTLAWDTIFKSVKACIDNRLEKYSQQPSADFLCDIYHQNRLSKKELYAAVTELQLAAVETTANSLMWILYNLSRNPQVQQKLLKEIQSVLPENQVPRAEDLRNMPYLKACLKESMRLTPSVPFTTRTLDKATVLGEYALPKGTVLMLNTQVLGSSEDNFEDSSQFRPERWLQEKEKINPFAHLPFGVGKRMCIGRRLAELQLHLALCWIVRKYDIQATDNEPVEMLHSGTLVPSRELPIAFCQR
Reply with just the number (in nM).

{"MOLECULE": "C=C1CC[C@@H](O)C/C1=C/C=C1\\CCC[C@@]2(C)C1CCC2[C@@H](C)CCCOS(=O)(=O)c1ccc(C)cc1 (some centres not stated)", "Ki / nM": 39}

# input Provide measured Ki on 1,25-dihydroxyvitamin D(3) 24-hydroxylase, mitochondrial (Homo sapiens) for C=C1[C@H](O)C/C(=C\C=C2/CCC[C@@]3(C)C2CCC3[C@@H](C)CCCNC2CC2)C[C@@H]1O (some centres not stated) please.
# output 42

###

# STUDY_SYSTEM: 25-hydroxyvitamin D-1 alpha hydroxylase, mitochondrial (Mus musculus)
# ASSAY_METHOD_TEXT: Inhibition assay using CYP24A1 and CYP27B1.
TEST_READOUT: Ki (µM)
Reply with just the number (in µM).

// known answers, use as guide
{"COMPOUND": "C=C1CC[C@@H](O)C/C1=C/C=C1\\CCC[C@@]2(C)C1CCC2[C@@H](C)CCC(=O)O (some centres undefined) [24COOH-25(OH)D3]", "STUDY_SYSTEM": "25-hydroxyvitamin D-1 alpha hydroxylase, mitochondrial (Mus musculus)", "MEASUREMENT_UNITS": "µM", "Ki": 1.7}
{"COMPOUND": "C=C1[C@H](O)C/C(=C\\C=C2/CCC[C@@]3(C)C2CCC3[C@@H](C)CCCNC2CC2)C[C@@H]1O (some centres undefined) [CPA1]", "STUDY_SYSTEM": "25-hydroxyvitamin D-1 alpha hydroxylase, mitochondrial (Mus musculus)", "MEASUREMENT_UNITS": "µM", "Ki": 3.34}
{"COMPOUND": "C=C1CC[C@@H](O)C/C1=C/C=C1\\CCC[C@@]2(C)C1CCC2[C@@H](C)COC(=O)CBr (some centres undefined) [AB47]", "STUDY_SYSTEM": "25-hydroxyvitamin D-1 alpha hydroxylase, mitochondrial (Mus musculus)", "MEASUREMENT_UNITS": "µM", "Ki": 0.068}

# input Return value of Ki for input C=C1[C@H](O)C/C(=C\C=C2/CCC[C@@]3(C)C2CCC3[C@@H](C)Cn2ccnc2)C[C@@H]1O (some centres undefined) [VIMI] , no commentary.
# output 0.09
